Value source: ChEMBL document CHEMBL4196210

target: Trypsin (Homo sapiens, UniProt P07477+P07478+P35030); assay: Inhibition of trypsin (unknown origin) pre-incubated for 30 mins before N-Boc-FSR-AMC substrate addition and measured after 30 mins; type: protein assay
The reader will find reported IC50 values listed item by item below.

Recorded results for 5 molecules are shown here.
Cc1nn(-c2ccccc2)c(C)c1NC(=O)COC(=O)Cc1c[nH]c2ccccc12: 150 µM
Cc1nn(-c2ccccc2)c(C)c1NC(=O)COC(=O)Cc1c(C)[nH]c2cccc(Cl)c12: > 200 µM
Cc1nn(-c2ccccc2)c(C)c1NC(=O)COC(=O)C(c1c(C)[nH]c2ccccc12)C(F)(F)F (configuration not stated): > 200 µM
Cc1nn(-c2ccccc2)cc1NC(=O)CNC(=O)Cc1c(C)[nH]c2ccccc12: > 200 µM
Cc1nn(-c2ccccc2)c(C)c1NC(=O)COC(=O)Cn1c(C)nc2ccccc21: > 200 µM

Q: Recorded IC50 of Cc1nn(-c2ccccc2)c(C)c1NC(=O)C(OC(=O)Cc1c(C)[nH]c2ccccc12)C(F)(F)F (configuration not stated) , please.
Ans: 0.38 µM

Q: Record request: IC50 value, item Cc1nn(-c2ccccc2)c(C)c1NC(=O)COC(=O)C(C)c1c(C)[nH]c2ccccc12 (configuration not stated)
Ans: > 200 µM
